Assignment: determine reported growth for the given compounds.
# Test system: NCI-H23 lung
# test summary: NCI-60 one-dose screen, 48 h (100 = growth as untreated, 0 = no growth, -100 = all killed)
# cond: 10 µM
This is part of a sample that, as a whole, favours compounds with a hit. Of some 83,000 tested, about 20% had one in any assay.
Only the number, expressed in %, is required.

Task: # input compound: COc1ccc(Nc2ncnc3c2c(SC)nn3-c2ccccc2)cc1 ; wanted: its growth
Result: 89.8

Task: I would be grateful if you could share the reported growth for COc1ccc2c(c1)sc1nc(-c3ccccc3)c(-c3cccnc3)n12 .
Result: 88.4

Task: Name the recorded growth for CC(=O)N1N=C(c2ccc(Cl)cc2)CC1c1sc(Cl)nc1Cl (centres undefined) .
Result: 87.4

Task: Recorded growth of CN1c2ccccc2[C@]2(Cc3ccccc3)Cc3ccccc3N[C@H]12 , please.
Result: 91.4

###

# Tested on: K-562 leukemia
# test summary: NCI-60 one-dose screen, 48 h
# cond: 10 µM
The panel holds about 83,000 compounds, 20% with a hit somewhere; the sample as a whole holds those more often. The source made the active and inactive calls. The calls were made as follows: active = growth percent below 10; inactive = the rest.
Permitted responses: class 1 = active, class 0 = inactive

Task: Which outcome did this test record for the molecule CC(=O)CSC(C)=O ?
Result: class 0

Task: For COc1ccc(-c2nc3ccccn3c2-c2nnc(-c3cc(OC)c(OC)c(OC)c3)o2)cc1 , which call appears in the assay record?
Result: class 0

Task: Answer briefly: the call reported for c1ccc([I+]c2ccccc2)cc1 in this assay.
Result: class 0

Task: For Cc1ccc(N=Nc2c(N)nc(N)[nH]c2=O)cc1C , which call appears in the assay record?
Result: class 0

Task: Returns: the outcome recorded for COc1cc(/C=C\c2cc(OC)c(OC)c(OC)c2)cc(NS(=O)(=O)c2ccc(Cl)cc2)c1OC in this assay.
Result: class 0

Task: What outcome does the record of this test show for O=C(Nc1ccccc1)Nc1cccc(-n2cc(-c3ccncc3)c(-c3ccc(O)c(Cl)c3)n2)c1 ?
Result: class 0

Task: Which result was noted for this molecule in the test: CC1(C)Cc2c(sc3ncn4nc(-c5ccc(O)cc5)nc4c23)CO1
Result: class 0

Task: Hi, sorry to bother you, what did the test record for COc1ccc(/C=C/C(=O)Nc2ccc(-c3nc4ccc(OC)cc4s3)cc2)cc1 ?
Result: class 0

Task: Outcome? COc1ccc(N2C(=O)C3c4[nH]c5ccc(OCc6ccccc6)cc5c4C4CCC(C(C)C)CC4C3C2=O)cc1 (stereo not given)
Result: class 0

Task: What classification did Cc1ccc(NC(=O)Nc2nc3ccccc3s2)cc1NC(=O)Nc1nc2ccccc2s1 end up with in this test?
Result: class 0

Task: Please state the recorded outcome for this molecule: COc1cccc(NC(=O)c2sc3nc4c(cc3c2N)C(O)CCC4)c1 (stereo not given)
Result: class 1

Task: How was O=C(O)CCCCSc1ncnc2nc[nH]c12 classified in this test?
Result: class 0

Task: Outcome? CCN(CC)CCSCCCNc1c2ccc(Cl)cc2nc2ccc(OC)cc12
Result: class 1

Task: Returns: the outcome recorded for Nc1nc(N=Nc2ccc(O)cc2)cc(=O)[nH]1 in this assay.
Result: class 0

Task: Record request — test call for N#CCCN(NC(=O)OCc1ccccc1)C(=O)OCc1ccccc1
Result: class 0

Task: // outcome(item) with item = O=C1NC(=O)c2ncccc21
Result: class 0

Task: In this assay, the call recorded for Cc1ccc(C)c(C(O)(c2cc(C)ccc2C)C2(O)CCCCC2)c1 was what?
Result: class 0

Task: # lookup: test call for O=[N+]([O-])c1cccc(N=Cc2ccc3c(c2)OCO3)c1
Result: class 0

Task: Record request — test call for Cc1[nH]nc2c1C(c1cnn(C)c1)C(C#N)=C(N)O2 (stereo not given)
Result: class 0

Task: Recorded call for CN(C)c1ccc(Cc2ccc(N(C)C)cc2Cl)c(Cl)c1 ?
Result: class 0

###

# System: MOLT-4 leukemia
# test summary: NCI-60 one-dose screen, 48 h
# cond: 10 µM
The panel holds about 83,000 compounds, 20% with a hit somewhere; the sample as a whole holds those more often. The source made the active and inactive calls. How the source made its calls: active means growth percent below 10; inactive means the rest.
Respond using exactly one of the listed classes: active, inactive

Task: Fill in: this test's call for COc1cc(-c2cc(/C=C/C(=O)c3ccc4c(c3)OCO4)[nH]n2)cc(OC)c1OC is ___
Result: inactive

Task: Returns: the outcome recorded for COc1cccc(C(=O)Nc2ccc(CN3CCc4nc5cc(OC)c(OC)cc5cc43)cc2)c1 in this assay.
Result: inactive

Task: Test call, this compound: CCN1CCC(CCOC)(CN2c3ccccc3Sc3ccc(Cl)cc32)C1 (configuration not stated)
Result: inactive

Task: Hi, do you know how COc1ccc2c(c1)sc1nc(-c3ccccc3)c(-c3ccc(O)c(OC)c3)n12 came out in this test?
Result: inactive

Task: GET /call?item= COc1cc(-c2cc(/C=C/C(=O)c3ccc(F)c(F)c3)[nH]n2)cc(OC)c1OC returns the recorded outcome of this test.
Result: inactive

Task: How did this test come out for Clc1ccc(/C=C2\CCCC3=C2N=C2SC=NN2C3c2ccc(Cl)cc2)cc1 (configuration not stated) ?
Result: inactive

Task: How was COc1cc(CNCCCCCCN2C(=O)c3cccc4cccc(c34)C2=O)ccc1O classified in this test?
Result: inactive

Task: Record lookup: outcome of this test for COc1cc2cc3c(nc2cc1OC)CCN3Cc1ccc(NC(=O)Nc2ccc(F)cc2F)cc1 ?
Result: inactive

Task: Any idea what this test logged for COc1ccc(-c2nn(-c3cccc(NC(=O)c4ccc(Cl)c(Cl)c4)c3)cc2-c2ccncc2)cc1Cl ?
Result: inactive

Task: Could you kindly confirm the outcome this assay logged for O=[N+]([O-])c1cccc(-c2ncc(-c3ccc(Cl)cc3Cl)[nH]2)c1 ?
Result: inactive

Task: Hi team, can someone confirm the assay call for CCN1CCN(c2nc3ccccc3c3c(=O)c4ccccc4sc23)CC1 ?
Result: active

Task: Just curious, what result did COc1ccc(-c2nc3sccn3c2-c2nc3c([nH]2)C(=O)c2ccccc2C3=O)cc1 get here?
Result: inactive

Task: Outcome logged for N#CCCN1C/C(=C/c2ccccc2)C(=O)/C(=C/c2ccccc2)C1 in this assay:
Result: active

Task: Tell me the recorded outcome of this test for COc1cc(/C=N/NC(=O)c2ccccc2Nc2cccc(C(F)(F)F)c2)cc(OC)c1OC .
Result: inactive

Task: I would be grateful if you could indicate the recorded call for O=C1/C(=C\c2ccc(Cl)cc2)CN(C(=O)c2ccccc2)C/C1=C\c1ccc(Cl)cc1 .
Result: inactive

Task: Query: recorded result category for O=C(O)c1ccc(Cl)cc1Nc1ccc(F)cc1 in this test
Result: inactive

Task: Any idea what this test logged for CCN(CC)CCNc1ccc(CO)c2oc3cc(Cl)ccc3c(=O)c12 ?
Result: inactive

###

# Tested on: EKVX NSCLC
# test summary: NCI-60 one-dose screen, 48 h (100 = growth as untreated, 0 = no growth, -100 = all killed)
# cond: 10 µM
About 83,000 compounds went through this panel and 20% of them were active in at least one assay; those are over-represented in the sample as a whole.
measure: growth (%)
Your answer is read as %, so omit the unit and give the number.

Task: Record request: growth value, item COc1cc2nc(Nc3cccc(NC(C)=O)c3)nc(N)c2cc1OC
Result: 133

Task: Given the compound Nc1nc(Nc2ccccc2)n[nH]1 , what is its reported growth?
Result: 95.8

Task: Can you share its growth? I mean this compound: Oc1[nH]c2ccc(Cl)cc2c1/C=c1/ccc2c(c1)N=C(c1cc(F)cc(F)c1)N=2
Result: 88.8

Task: May I ask what growth has been recorded for CN(C)CCCn1c(=O)c2ccccc2c2cnc3[nH]ccc3c21 ?
Result: 10.5

Task: // returns reported growth for input O=C(CSSCC(=O)c1ccc(Cl)cc1)c1ccc(Cl)cc1
Result: 91.4

Task: Please report the recorded growth for CCC1(C(C)C)NC(=O)NC1=O (configuration not stated) .
Result: 99.4

Task: Name the reported growth value associated with the compound CCCCOc1ccc(NC(=O)Nc2nnc(C)s2)cc1
Result: 99.6

Task: Reported growth, compound C=C(Cl)[C@@](Cl)(CBr)CC[C@@H](Br)C(C)(C)Cl : ____
Result: -79

Task: Quick one: growth of COc1cc(C(=C2O[C@@H]([C@H]3COC(C)(C)O3)[C@H]3OC(C)(C)O[C@@H]23)c2cc(OC)c(OC)c(OC)c2)cc(OC)c1OC ?
Result: 98.5

Task: Report growth for O=C(CC(NC(=O)OCc1ccccc1)C(=O)OCc1ccccc1)OCc1ccccc1 (configuration not stated) please.
Result: 95.7

Task: Return reported growth; argument: COc1ccc(-c2nc3ncccn3c2-c2nnc(-c3ccc(F)cc3)o2)cc1
Result: 96

Task: What value of measured growth is listed for COC(=O)c1ccc(=O)oc1 ?
Result: 98.6
